- MEASURED_ON: Prostaglandin G/H synthase 2 (Homo sapiens)
- PROCEDURE_TEXT: Inhibition of recombinant human COX2 assessed as PGF2alpha formation at 50 uM by enzyme immunoassay
Property: inhibition; scope: individual compounds
Please reply with the bare figure in % and do not write the unit itself.

Record excerpt, results attached:
CS(=O)(=O)c1ccc2c(c1)c(Cc1ccc(Br)cc1)cn2C=CCC(F)(F)F (mixture of isomers) | 21
CS(=O)(=O)c1ccc2c(c1)c(Cc1ccc(F)cc1)cn2C=CCC(F)(F)F (mixture of isomers) | 12
NS(=O)(=O)c1ccc2[nH]cc(Cc3ccc(Cl)cc3)c2c1 | 32
NS(=O)(=O)c1ccc2[nH]cc(Cc3ccc(F)cc3)c2c1 | 32
NS(=O)(=O)c1ccc(Cc2c[nH]c3ccc(Br)cc23)cc1 | 22

Q. Which value of inhibition has been reported for `CS(=O)(=O)c1ccc2[nH]c(Cc3ccc(Cl)cc3)c(Cc3ccc(Cl)cc3)c2c1` in the records?
A. 24

Q. What value of inhibition has been reported for the following compound? CS(=O)(=O)c1ccc2c(c1)c(Cc1ccc(Br)cc1)cn2CC(O)CC(F)(F)F (centres undefined)
A. 23

Q. Please look up its inhibition: `NS(=O)(=O)c1ccc2[nH]cc(Cc3ccc(Br)cc3)c2c1`
A. 23

Q. Return reported inhibition; argument: CS(=O)(=O)c1ccc2c(c1)c(Cc1ccc(Cl)cc1)cn2CC(O)CC(F)(F)F (centres undefined)
A. 20
